All figures here come from paper PMC4552634.

# System: P. falciparum stage V gametocytes
# Design: BacTiter-Glo ATP luminescence viability of purified stage V gametocytes in 384-well plates, per cent inhibition versus DMSO
# settings: 48 h, 5 µM; inhibitor
The campaign covered roughly 13,000 compounds. About 3,200 (25%) showed an effect of 50% or more. Some of the results follow.
reportedEndpoint: % Inhibition (%)
Supply the numeric figure in %, leaving out any unit text.

Solved cases (4 shown):
{"compound": "COc1cc2c(cc1S(=O)(=O)c1ccc(OCc3ccc(Cl)cc3)cc1)CCN(Cc1ccc(NC(C)=O)s1)CC2 [TCMDC-132326]", "system": "P. falciparum stage V gametocytes", "recordedMeasurement": -7.841}
{"compound": "O=C(NC1CCN(Cc2ccccc2)CC1)c1ccc2c(=O)n(Cc3ccc(Cl)cc3)c(=S)[nH]c2c1 [TCMDC-125694]", "system": "P. falciparum stage V gametocytes", "recordedMeasurement": 0.6987}
{"compound": "C=C(F)c1sc(CNCCCNc2nc3ccccc3[nH]2)c(C)c1Br [TCMDC-141307]", "system": "P. falciparum stage V gametocytes", "recordedMeasurement": 13.46}
{"compound": "CCc1ccc(CN2CCC(CN(c3ccc(N4CCOCC4)c(F)c3)S(=O)(=O)c3ccc(C(C)(C)CC)cc3)CC2)cc1 [TCMDC-135290]", "system": "P. falciparum stage V gametocytes", "recordedMeasurement": -12.43}

Prompt: What value of % Inhibition has been recorded for this entry: O=C(Nc1cccc(-c2nn3ncccc3c2-c2ccnc(Nc3cccc(-c4cnco4)c3)n2)c1)c1c(F)cccc1F [TCMDC-135550]
Completion: -49.22

Prompt: Try the compound Cc1[nH]c(/C=C2\C(=O)Nc3ccc(S(=O)(=O)Cc4c(Cl)cccc4Cl)cc32)c(C)c1C(=O)N1CCC[C@@H]1CN1CCCC1 [TCMDC-125885]
Completion: 103.4

Prompt: Entry Nc1cccc(CNCc2cccc(-c3csc(-c4nc5ccccc5[nH]4)c3)c2)c1 [TCMDC-132925] please
Completion: -31.54

###

# System: P. falciparum stage V gametocytes
# Parameters: BacTiter-Glo ATP luminescence viability of purified stage V gametocytes in 384-well plates, per cent inhibition versus DMSO
# settings: 48 h, 5 µM; inhibitor
Hit rate of the full screen: of about 13,000 compounds, about 3,200 (25%) showed an effect of 50% or more. This is one part of the list.
# % Inhibition per entry

Solved cases (3 shown):
{"compound": "C[C@@H](NC(=O)NC(CCN1CCC2(CC1)CN(S(C)(=O)=O)c1ccccc12)c1ccc(Cl)c(Cl)c1)c1ccccc1 (some centres unmarked)", "system": "P. falciparum stage V gametocytes", "% Inhibition": "25.06%"}
{"compound": "CCc1cn2c3c(cc(C(=O)N[C@@H](Cc4cccc(Cl)c4)[C@H](O)CNC4CCOCC4)cc13)N(C)S(=O)(=O)CC2", "system": "P. falciparum stage V gametocytes", "% Inhibition": "67.17%"}
{"compound": "O=C(NCCCCCN1CCC(c2ccc(O)cc2)CC1)c1ccc(-c2ccccc2)cc1", "system": "P. falciparum stage V gametocytes", "% Inhibition": "-56.25%"}

Prompt: Look at this compound and give its reported % Inhibition. `CCc1cn2c3c(cc(C(=O)N[C@@H](Cc4cccc(Cl)c4)[C@H](O)CNC4CCCCC4)cc13)N(C)S(=O)(=O)CC2`
Completion: 39.17%

Prompt: Try this compound next: `O=C(/C=C/c1ccc(Cl)c(Cl)c1)NCCCCCN1CCC(NC(=O)Nc2ccc(Cl)c(Cl)c2)CC1`
Completion: -30.31%

Prompt: Now the same for `O=C(Nc1ccc(C(=O)N2CCN(CCN3CCN(c4cccc(C(F)(F)F)c4)CC3)CC2)cc1)c1cc(Cl)cc(Cl)c1`
Completion: -60.88%

Prompt: Please do the same for `O=C(NCCCc1ccccc1)c1ccc(O)c(-c2cc(Cl)cc(Cl)c2)c1` as well.
Completion: -73.77%

Prompt: Same question for CS(=O)(=O)N1CC2(CCN(CCC(NC(=O)Nc3ccccc3)c3ccc(Cl)c(Cl)c3)CC2)c2ccccc21 (centres unmarked) please.
Completion: 12.26%

Prompt: Also `O=C(NCCCN1CCC(NC(=O)c2ccc(-c3cccnc3)cc2)CC1)c1ccc(Cl)c(Cl)c1` , if possible.
Completion: 16.57%

Prompt: Now try CS(=O)(=O)N1CC2(CCN(CCC(NC(=S)Nc3ccccc3)c3ccc(Cl)c(Cl)c3)CC2)c2ccccc21 (centres unmarked) .
Completion: 57.16%

Prompt: Likewise for COc1ccc(NC(=O)NC2CCN(CCCCCNC(=O)/C=C/c3ccc(Cl)c(Cl)c3)C2)c(OC)c1 (centres unmarked) ?
Completion: 95.6%

Prompt: Now consider `O=C(NC1CCN(CCN2CCC(c3ccccc3C(F)(F)F)CC2)CC1)c1ccc(-c2ccc(Cl)cc2)cc1` and answer again.
Completion: -39.81%

Prompt: Consider next the compound `O=C(Nc1ccc(OC2CCN(Cc3ccsc3)CC2)c(Cl)c1)c1cccs1` in the same way.
Completion: -2.262%

Prompt: Same lookup for `CCCc1cn2c3c(cc(C(=O)N[C@@H](Cc4ccccc4)[C@H](O)CNC4CCOCC4)cc13)N(C)S(=O)(=O)CC2` , please.
Completion: 9.174%

Prompt: How about `CC(C)c1ccc(NC(=O)NC2CCN(CCCCCNC(=O)/C=C/c3ccc(Cl)c(Cl)c3)CC2)cc1` ?
Completion: -3.81%

###

# System: P. falciparum stage V gametocytes
# Set-up: BacTiter-Glo ATP luminescence viability of purified stage V gametocytes in 384-well plates, per cent inhibition versus DMSO
# settings: 48 h, 5 µM; inhibitor
The campaign covered roughly 13,000 compounds. About 3,200 (25%) showed an effect of 50% or more. Some of the results follow.
reportedEndpoint: % Inhibition (%)
The reply should contain only the number, in %.

Below, each entry is followed by its recorded % Inhibition result.
{"compound": "COc1ccc(CCN2CCC(NCc3cccc(N(C)C)c3)CC2)cc1", "outputUnit": "%", "recordedMeasurement": -14.2}
{"compound": "O=C(NC1CCCCC1)c1csc(C2CCCN(C(=O)c3ccc(O)c(-c4cccc(C(F)(F)F)c4)c3)C2)n1 (centres unmarked)", "outputUnit": "%", "recordedMeasurement": 5.189}
{"compound": "Cc1ccc(C(=O)NCC2CCN(c3ccc(C(F)(F)F)cc3NC(=O)c3ccco3)CC2)cn1", "outputUnit": "%", "recordedMeasurement": 52.48}
{"compound": "CCN(CC)CCN1C(=O)c2oc3ccc(Cl)cc3c(=O)c2C1c1ccc(SC)cc1 (centres unmarked)", "outputUnit": "%", "recordedMeasurement": 3.621}
{"compound": "CN1CCN(c2ccc(-c3cccc(NC(=O)c4cccc(Cl)c4)c3)nn2)CC1", "outputUnit": "%", "recordedMeasurement": 20.42}

Prompt: Fill in the recorded % Inhibition for this compound, with P. falciparum stage V gametocytes as test system: `Cc1ccc(NC(=O)NC2CCN(CCCCCNC(=O)/C=C/c3ccc(Cl)c(Cl)c3)CC2)cc1C`
Completion: -56.47

Prompt: Now the same for `CC(C)(C)Nc1nc(Nc2cccc([N+](=O)[O-])c2)nc(-n2ccnc2)n1`
Completion: -24.43

Prompt: Again, but for `FC(F)(F)c1ccc2nc(-c3ccc(-c4ccc(CN5CCN(c6ccncc6)CC5)cc4)cc3)[nH]c2c1`
Completion: -1.262

Prompt: Please do the same for `O=C(Nc1ccsc1C(=O)NC1CCCCC1)c1ccc(F)cc1` as well.
Completion: -7.21

Prompt: Thanks! And `CC=CCON1C(N)=NC(N)=NC1(C)C` ?
Completion: 17.92

Prompt: And what about the compound `Cc1cc(C)c(NC(=O)N[C@H]2CCN(CCCCCNC(=O)/C=C/c3ccc(Cl)c(Cl)c3)C2)c(C)c1` ?
Completion: 86.25

###

# System: P. falciparum stage V gametocytes
# Design: BacTiter-Glo ATP luminescence viability of purified stage V gametocytes in 384-well plates, per cent inhibition versus DMSO
# settings: 48 h, 5 µM; inhibitor
In all, about 13,000 compounds went through this assay and about 3,200 (25%) showed an effect of 50% or more. The list shows a part of the results.
Items are presented alongside their recorded % Inhibition.
Kindly answer with a numeric value in %, unit omitted.

Below: 10 compounds and their reported % Inhibition.
{"compound": "CCc1cc2c(=O)c(-c3nc(C)cs3)c([C@H](N)Cc3ccc(O)cc3)oc2cc1O [TCMDC-124111]", "% Inhibition (%)": 0.6377}
{"compound": "COc1ccccc1N(C)CCNc1cc(C)nc(Nc2ccc(C)cc2)n1 [TCMDC-133456]", "% Inhibition (%)": -44.09}
{"compound": "C=CC(C)C1OC(=O)c2cc(OC)cc(OC)c21 (stereo not shown) [TCMDC-138676]", "% Inhibition (%)": 102.9}
{"compound": "COc1ccccc1CCNc1nc(C)cc(N[C@@H](Cc2ccccc2)C(=O)NCc2cccs2)n1 [TCMDC-134802]", "% Inhibition (%)": 51.92}
{"compound": "O=C(Nc1ccc(OC2CCN(Cc3ccsc3)C2)c(Cl)c1)c1ccsc1 (stereo not shown) [TCMDC-133947]", "% Inhibition (%)": 1.522}
{"compound": "Cc1cc(N[C@@H](Cc2ccccc2)C(=O)NCc2cccs2)nc(NCCc2ccccn2)n1 [TCMDC-134747]", "% Inhibition (%)": 121.6}
{"compound": "CN(C1CCC(NC(=O)/C=C/c2ccccc2)CC1)C1CC2(CCN(C(=O)OC(C)(C)C)CC2)c2ccccc21 (stereo not shown) [TCMDC-132880]", "% Inhibition (%)": 63.78}
{"compound": "N#CCCN1CCN(Cc2cccc(-c3ccc(-c4nc5ccccc5[nH]4)s3)c2)CC1.O=C(O)C(F)(F)F [TCMDC-133871]", "% Inhibition (%)": -9.564}
{"compound": "Cn1cnc2c(SCc3ccc(OCc4ccccc4)cc3)ncnc21 [TCMDC-136496]", "% Inhibition (%)": -19.47}
{"compound": "CC(C)c1ncc(-c2ccncc2)c(C2CCC(CNC(=O)c3ccncc3)CC2)n1 (stereo not shown) [TCMDC-124824]", "% Inhibition (%)": 1.29}

Prompt: // returns reported % Inhibition for input CCC(C)(C)NC(=O)C(c1cccc(OC)c1)N(C(=O)CNC(=O)c1cccs1)c1ccc2c(c1)OCCO2 (stereo not shown) [TCMDC-125637]
Completion: 1.141

Prompt: Consider next the compound C#CCCC(=O)Nc1cccc(-c2cccc(-c3nc4ccc(C(F)(F)F)cc4[nH]3)c2)c1 [TCMDC-136856] in the same way.
Completion: 5.566

Prompt: Please give the result for Cc1ccc(CN2CCN(c3cc4c(cc3Cl)CCN4C(=O)Cc3ccc(Cl)c(NC(=O)Nc4cccc(C#N)c4)c3)CC2)cc1 [TCMDC-139471] too.
Completion: 12.97
